test system: ABCA1; assay: ABCA1 up-regulation, luciferase reporter in ABCA1P-LUC HepG2 cells; assay type: cell-based; conditions: Homo sapiens, 18 h, maximum up-regulation fold of luciferase activity versus DMSO, read-out: ABCA1 max
measured_metric: maximal fold induction
Note: the reply should be a number with no unit written.

Below are worked cases with known answers.
molecule=O=c1c2ccccc2nc2c3[nH]c4ccccc4c3ccn12 reported_value=1.84
molecule=O=c1c2cccnc2nc2n1CCc1c-2[nH]c2ccc(Cl)cc12 reported_value=1.48
molecule=O=c1c2ccccc2cc2n1CCc1c-2[nH]c2ccccc12 reported_value=1.97
molecule=O=c1c2cccnc2nc2n1CCc1c-2[nH]c2c(Cl)cccc12 reported_value=1.57
molecule=c1ccc2c(c1)CN1CCc3c([nH]c4ccccc34)C1=N2 reported_value=2.26
molecule="O=C1c2ccccc2OC2c3[nH]c4ccccc4c3CCN12 (stereo not drawn)" reported_value=1.5
molecule=Cc1cccc2c3c([nH]c12)-c1nc2ncccc2c(=O)n1CC3 reported_value=1.51
molecule="O=C1c2ccccc2N(C(=O)C(F)(F)F)C2c3[nH]c4ccccc4c3CCN12 (stereo not drawn)" reported_value=1.96
molecule=O=c1c2ccccc2nc2n1CCc1c-2[nH]c2c(Cl)cccc12 reported_value=1.43
molecule=O=c1c2cccnc2nc2n1CCc1c-2[nH]c2c(F)cccc12 reported_value=1.54

State the recorded maximal fold induction for this entry: c1ccc2c(c1)CN1CCc3c([nH]c4ccccc34)C1N2 (stereo not drawn)
1.66

Recorded maximal fold induction for O=c1c2ccccc2nc2n1CCc1c-2[nH]c2ccccc12 [RUT, Rutaecarpine, reference compound] , please?
2.09
